# GFP response, % of DMSO listing for each entry below
# assay.comment: yeast AGP1-GFP level changes, GLN3 branch – cell-based, multiplex flow cytometry, S. cerevisiae, primary screen (AID 1887);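 note: AGP1-GFP fusion strain of S. cerevisiae within a five-strain barcoded multiplex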
# condition: 3 h, at 10 µM, stronger effect = higher value
Results filed as inconclusive are left out.
API: value field is a number in %; no unit string.

INSERT INTO assay_data (compound, meas_value) VALUES
  ('C[N+](C)(C)CCCC(=O)c1ccc2c(c1)OCO2', 97.7);

Please find the next compound below.
Item under review: COC(=O)c1ccccc1NC(=O)c1ccc(COc2ccc3c(c2)CCC3)cc1 . Reported GFP response, % of DMSO?
94.8

---

# test.system: Cell division control protein 42 homolog (Homo sapiens) (UniProt P60953)
# Sequence (P60953 whole entry, looked up): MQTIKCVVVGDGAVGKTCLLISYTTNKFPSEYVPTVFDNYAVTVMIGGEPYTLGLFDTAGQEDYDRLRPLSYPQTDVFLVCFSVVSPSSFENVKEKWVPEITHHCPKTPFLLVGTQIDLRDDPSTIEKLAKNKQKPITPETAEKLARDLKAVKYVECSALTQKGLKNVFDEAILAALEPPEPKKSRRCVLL
# assay.comment: inhibition of fluorescent GTP binding to wildtype Cdc42 – biochemical, multiplex bead flow cytometry, Bodipy-FL-GTP, dose response (AID 1334)
# condition: bead-based flow cytometry, Bodipy-FL-GTP binding to GST-Cdc42; at 100 µM (top of the series) unless noted
Results with a measured potency or affinity are listed apart.
# fluorescence, percent of control (lower = inhibition) listing for each entry below
API: value field is a number in %; no unit string.

INSERT INTO results (compound_string, test_system, meas_value) VALUES
  ('CCOC(=O)Cn1c(=O)c2c(nc(N3CCCCC3)n2C)n(C)c1=O', 'Cell division control protein 42 homolog (Homo sapiens) (UniProt P60953)', 52.2);

Item under review: Cc1cc2ccccn2c1C(=O)c1ccc(NN)c([N+](=O)[O-])c1 . Reported fluorescence, percent of control (lower = inhibition)?
35.2

Item under review: Cc1nc2c(ccc3nc(NC(=O)c4ccc(S(=O)(=O)N(C)C)cc4)sc32)s1 . Reported fluorescence, percent of control (lower = inhibition)?
79.8

Item under review: O=C(Nc1c(F)cccc1F)c1cnc(N2CCN(c3ccccn3)CC2)c2ccccc12 . Reported fluorescence, percent of control (lower = inhibition)?
97

Item under review: Cc1ccc(NCc2sc(C(=O)O)cc2C)cc1 . Reported fluorescence, percent of control (lower = inhibition)?
63

Item under review: Cc1ccc(-n2c(-c3cnccn3)n[nH]c2=S)c(Br)c1 . Reported fluorescence, percent of control (lower = inhibition)?
23.2

Item under review: COc1cc2[nH]c(=S)nc(NCCc3ccc(C)cc3)c2cc1OC . Reported fluorescence, percent of control (lower = inhibition)?
26.6

Item under review: Cc1ccc(C(=O)OCc2nnc(-c3ccc(Br)cc3)o2)cc1 . Reported fluorescence, percent of control (lower = inhibition)?
31.8

Item under review: COc1ccc(CN2C(=O)/C(=C/c3ccc(-c4ccc(Cl)c(C(=O)O)c4)o3)SC2=S)cc1 . Reported fluorescence, percent of control (lower = inhibition)?
32.2

Item under review: COc1ccc2c(c1)c(C(=O)O)cn2CCOc1ccccc1C . Reported fluorescence, percent of control (lower = inhibition)?
61.2

---

# assay.comment: reduced mouse 2C T cell binding to pMHC/ICAM-1 vesicles – MLPCN validation set, flow cytometry, LFA-1/ICAM-1 modulator project, pilot screen (AID 2523)
# condition: 2C mouse CD8+ T cells, at 7 µM, stronger effect = lower value; measured here: CD8+/vesicle+ event percentage
# double positive events listing for each entry below
API: value field is a number in %; no unit string.

Use these answered entries as a reference point.
INSERT INTO measurements (molecule, measurement_type, meas_value) VALUES
  ('CCN1CCN(C(=S)c2ccc(OC)cc2)CC1', 'double positive events', 62.5),
  ('CCc1oc2ccccc2c1C(=O)c1cc(Br)c(O)c(Br)c1', 'double positive events', 65.3),
  ('COc1ccc(C(C)N2CC34C=CC(O3)C(C(=O)OCC(C)C)C4C2=O)cc1 (centres undefined)', 'double positive events', 63.5),
  ('Cc1ccc(OCc2nc(-c3cccnc3)no2)cc1C', 'double positive events', 60.5),
  ('CC(=O)Nc1ccc(S(=O)(=O)c2ccc(N)cc2)cc1', 'double positive events', 62.6);

Item under review: O=C(Cc1cccc2ccccc12)N1CC[C@@]2(O)CCCC[C@H]2C1 . Reported double positive events?
62

Item under review: COc1ccc(Cc2noc(CN(C)CC3(N4CCOCC4)CCCCC3)n2)cc1OC . Reported double positive events?
60.5

Item under review: O=C(O)c1ccc(N2C(=O)/C(=C\c3ccccc3)N=C2c2ccccc2)cc1 . Reported double positive events?
58.6

Item under review: CN1C(C(=O)Nc2ccccn2)=C(O)c2sccc2S1(=O)=O . Reported double positive events?
63.2

Item under review: Cn1c(=O)c2[nH]cnc2n(C)c1=O . Reported double positive events?
67.8

Item under review: Cc1ccc(CN2CCN(CCCc3ccccc3)CC2CCO)cc1 (centres undefined) . Reported double positive events?
62.7

Item under review: O=C(NCCc1ccccc1)C1CCN(C2CCN(Cc3ccco3)CC2)CC1 . Reported double positive events?
58.9

---

# vesicle binding response listing for each entry below
# assay.comment: reduced mouse 2C T cell binding to pMHC/ICAM-1 vesicles – MLPCN validation set, flow cytometry, LFA-1/ICAM-1 modulator project, pilot screen (AID 2523);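 for vesicle binding response: mean PE anti-B7-1 fluorescence of CD8+ cells relative to row control; 100% = QL9-loaded vesicles with DMSO vehicle in the same plate row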
# condition: 2C mouse CD8+ T cells, at 7 µM, stronger effect = lower value
API: value field is a number in %; no unit string.

INSERT INTO measurements (molecule, meas_value) VALUES
  ('COC(=O)c1ccc(C(=O)OC)c(NC(=O)C(C)C)c1', 204),
  ('COc1ccccc1/C=C/C(=O)c1c2c(c(C)[nH]c1=O)CCCC2', 192);

Item under review: CC[N+]1(C)CC2CCC(C)(C1)C2(C)C (stereo not drawn) . Reported vesicle binding response?
193

---

# double positive events listing for each entry below
# assay.comment: reduced mouse 2C T cell binding to pMHC/ICAM-1 vesicles – MLPCN validation set, flow cytometry, LFA-1/ICAM-1 modulator project, pilot screen (AID 2523)
# condition: 2C mouse CD8+ T cells, at 7 µM, stronger effect = lower value; measured here: CD8+/vesicle+ event percentage

INSERT INTO measurements (compound, measurement_type, meas_value) VALUES
  ('COc1ccc2nc(S(=O)Cc3ncc(C)c(OC)c3C)[nH]c2c1 (stereo unspecified)', 'double positive events', '60.4%'),
  ('O=c1[nH]c(=O)n(C2CCCO2)cc1F (stereo unspecified)', 'double positive events', '60.9%'),
  ('O=C(COc1ccccc1)Nc1ccc2c(c1)C(=O)N(CC1CCCO1)C2=O (stereo unspecified)', 'double positive events', '61.5%'),
  ('Cc1ccc2c(c1)c(C)cc(=O)n2CCC(=O)O', 'double positive events', '61.6%'),
  ('CCOc1cc(C=O)ccc1OCCSc1ccc(C)cc1', 'double positive events', '60.1%');

Item under review: CCOC(=O)c1ccc(N2C(=O)C(CC(=O)NC)N(CCc3ccc(OC)c(OC)c3)C2=S)cc1 (stereo unspecified) . Reported double positive events?
59.4%

Item under review: CC1(C)Cc2ccccc2-c2n[nH]c(=S)n21 . Reported double positive events?
61.1%

Item under review: CC(=O)c1c(C)c(C)c2n1CCn1c(C)ccc1-2 . Reported double positive events?
60.2%

Item under review: CC(=O)CC(c1ccc([N+](=O)[O-])cc1)c1c(O)c2ccccc2oc1=O (stereo unspecified) . Reported double positive events?
60.4%

Item under review: Cc1cc(O)c(C(C)C)cc1C1(c2cc(C(C)C)c(O)cc2C)OC(=O)c2ccccc21 . Reported double positive events?
61.7%

---

# assay.comment: calorie-restriction mimetic ROS inhibitors, yeast – validation compound set, pilot screen (AID 2706);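 note: yeast exposed to compound for one week at 30 degrees C before staining; 100% = mean of all compound wells on the same plate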
# condition: S. cerevisiae aging, superoxide DHE fluorescence; at 10 µM; stronger effect = lower value
Returns: string. Value is Y if measured superoxide response (% of plate) is below 90%, and N if it is greater than or equal to it.

Use the examples below as a reference point.
INSERT INTO results (molecule, assigned_category) VALUES
  ('O=C(N/C(=C/C=C\c1ccccc1)C(=O)N1CCOCC1)c1ccc(Br)cc1', 'Y'),
  ('CN1C2CCC1CC(OC(c1ccccc1)c1ccccc1)C2 (configuration not stated)', 'N'),
  ('O=C(CN1CCN(Cc2ccccc2)CC1)N1CCCc2c1c(=O)oc1ccc(O)cc21', 'N'),
  ('COc1cc(NC(=S)NC(=O)c2cccs2)ccc1NC(=O)C(C)C', 'N'),
  ('C[C@]12CC[C@@H]3c4ccc(O)cc4CC[C@H]3[C@@H]1CC[C@@H]2O', 'N'),
  ('CN(C)C(=O)CCCCCCCCC(=O)N(C)C', 'Y');

Dear colleague, could you confirm whether superoxide response (% of plate) of COc1ccc(C2C3CCCCC3(O)CCN2C(=O)c2cccs2)cc1 (configuration not stated) falls below 90%? Thanks.
N

Dear colleague, could you confirm whether superoxide response (% of plate) of CCn1nc(C(=O)O)c(=O)c2cc3c(cc21)OCO3 falls below 90%? Thanks.
N

Dear colleague, could you confirm whether superoxide response (% of plate) of CC12CCC(C(=O)NNc3ccccc3)(C(=O)C1=O)C2(C)C (configuration not stated) falls below 90%? Thanks.
N
